Source listed as patent US11414384B2.

In this section, each of the molecules is paired with its reported pIC50.
# assay target: p300 HAT domain (residues 1287-1666) (Homo sapiens (Human), UniProt Q09472)
# Sequence (Q09472 1287-1666): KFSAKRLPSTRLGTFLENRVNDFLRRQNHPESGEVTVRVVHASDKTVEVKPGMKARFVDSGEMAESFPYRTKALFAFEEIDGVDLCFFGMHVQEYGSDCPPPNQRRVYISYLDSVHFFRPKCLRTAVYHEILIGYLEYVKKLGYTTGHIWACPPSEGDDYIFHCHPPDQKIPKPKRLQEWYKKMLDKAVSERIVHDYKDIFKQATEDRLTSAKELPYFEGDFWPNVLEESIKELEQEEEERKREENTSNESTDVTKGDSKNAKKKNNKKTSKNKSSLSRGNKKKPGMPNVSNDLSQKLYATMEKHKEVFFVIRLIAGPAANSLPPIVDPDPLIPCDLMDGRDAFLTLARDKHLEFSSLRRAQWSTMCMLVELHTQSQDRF
# test name: p300 HAT SPA assay (scintillation proximity assay, acetylation of biotinylated H3(1-21) peptide)
# Format: biochemical
# condition parameters: p300 HAT domain; average of at least 2 replicate titrations; read-out: P300 HAT SPA IC50
The meaning of pIC50 here: minus log10 of the concentration in molar units.

These recorded examples may help you get a feel for the data.
CNC(=O)c1cccc2c(C(=O)C(NCCc3ccc(Cl)cc3Cl)c3ccccc3)c[nH]c12 (single isomer, unassigned) [147 Isomer 2]    5.31
CC(Cc1ccc(Cl)cc1Cl)NC(C(=O)c1c[nH]c2cc(-c3cnn(C)c3)ccc12)c1ccccc1 (single isomer, unassigned) [97 Isomer 2]    5.20

The molecule O=C(c1c[nH]c2ccccc12)C(NCCc1ccc(Cl)nc1)c1ccccc1 (single isomer, unassigned) [52 Isomer 1] showed pIC50 equal to 4.82

The molecule CN1CCC(c2ccc3c(C(=O)C(NCCc4ccc(C#N)cc4)c4ccccc4)c[nH]c3c2)CC1 (single isomer, unassigned) [64 Isomer 1] showed pIC50 equal to 7.01

The molecule CN(C)c1ccc(CCNC(C(=O)c2c[nH]c3ccccc23)c2ccccc2)cc1 (single isomer, unassigned) [39 Isomer 2] showed pIC50 equal to 6.11

The molecule O=C(O)c1ccc(CCNC(C(=O)c2c[nH]c3ccccc23)c2ccccc2)cc1 (single isomer, unassigned) [132 Isomer 2] showed pIC50 equal to 4.75

The molecule Cn1cnc(-c2ccc3c(C(=O)C(NCCc4ccc(C#N)cc4)c4ccccc4)c[nH]c3c2)c1 (single isomer, unassigned) [113 Isomer 2] showed pIC50 equal to 7.55

The molecule CC(CNC(C(=O)c1cnn2cc(-c3cnn(C)c3)ccc12)c1ccccc1)c1ccc(C#N)cc1 (single isomer, unassigned) [102 Isomer 4] showed pIC50 equal to 8.03

* * *

Below are compounds with their IC50 as measured on full length p300 (Homo sapiens (Human)).
Sequence (Q09472 whole entry): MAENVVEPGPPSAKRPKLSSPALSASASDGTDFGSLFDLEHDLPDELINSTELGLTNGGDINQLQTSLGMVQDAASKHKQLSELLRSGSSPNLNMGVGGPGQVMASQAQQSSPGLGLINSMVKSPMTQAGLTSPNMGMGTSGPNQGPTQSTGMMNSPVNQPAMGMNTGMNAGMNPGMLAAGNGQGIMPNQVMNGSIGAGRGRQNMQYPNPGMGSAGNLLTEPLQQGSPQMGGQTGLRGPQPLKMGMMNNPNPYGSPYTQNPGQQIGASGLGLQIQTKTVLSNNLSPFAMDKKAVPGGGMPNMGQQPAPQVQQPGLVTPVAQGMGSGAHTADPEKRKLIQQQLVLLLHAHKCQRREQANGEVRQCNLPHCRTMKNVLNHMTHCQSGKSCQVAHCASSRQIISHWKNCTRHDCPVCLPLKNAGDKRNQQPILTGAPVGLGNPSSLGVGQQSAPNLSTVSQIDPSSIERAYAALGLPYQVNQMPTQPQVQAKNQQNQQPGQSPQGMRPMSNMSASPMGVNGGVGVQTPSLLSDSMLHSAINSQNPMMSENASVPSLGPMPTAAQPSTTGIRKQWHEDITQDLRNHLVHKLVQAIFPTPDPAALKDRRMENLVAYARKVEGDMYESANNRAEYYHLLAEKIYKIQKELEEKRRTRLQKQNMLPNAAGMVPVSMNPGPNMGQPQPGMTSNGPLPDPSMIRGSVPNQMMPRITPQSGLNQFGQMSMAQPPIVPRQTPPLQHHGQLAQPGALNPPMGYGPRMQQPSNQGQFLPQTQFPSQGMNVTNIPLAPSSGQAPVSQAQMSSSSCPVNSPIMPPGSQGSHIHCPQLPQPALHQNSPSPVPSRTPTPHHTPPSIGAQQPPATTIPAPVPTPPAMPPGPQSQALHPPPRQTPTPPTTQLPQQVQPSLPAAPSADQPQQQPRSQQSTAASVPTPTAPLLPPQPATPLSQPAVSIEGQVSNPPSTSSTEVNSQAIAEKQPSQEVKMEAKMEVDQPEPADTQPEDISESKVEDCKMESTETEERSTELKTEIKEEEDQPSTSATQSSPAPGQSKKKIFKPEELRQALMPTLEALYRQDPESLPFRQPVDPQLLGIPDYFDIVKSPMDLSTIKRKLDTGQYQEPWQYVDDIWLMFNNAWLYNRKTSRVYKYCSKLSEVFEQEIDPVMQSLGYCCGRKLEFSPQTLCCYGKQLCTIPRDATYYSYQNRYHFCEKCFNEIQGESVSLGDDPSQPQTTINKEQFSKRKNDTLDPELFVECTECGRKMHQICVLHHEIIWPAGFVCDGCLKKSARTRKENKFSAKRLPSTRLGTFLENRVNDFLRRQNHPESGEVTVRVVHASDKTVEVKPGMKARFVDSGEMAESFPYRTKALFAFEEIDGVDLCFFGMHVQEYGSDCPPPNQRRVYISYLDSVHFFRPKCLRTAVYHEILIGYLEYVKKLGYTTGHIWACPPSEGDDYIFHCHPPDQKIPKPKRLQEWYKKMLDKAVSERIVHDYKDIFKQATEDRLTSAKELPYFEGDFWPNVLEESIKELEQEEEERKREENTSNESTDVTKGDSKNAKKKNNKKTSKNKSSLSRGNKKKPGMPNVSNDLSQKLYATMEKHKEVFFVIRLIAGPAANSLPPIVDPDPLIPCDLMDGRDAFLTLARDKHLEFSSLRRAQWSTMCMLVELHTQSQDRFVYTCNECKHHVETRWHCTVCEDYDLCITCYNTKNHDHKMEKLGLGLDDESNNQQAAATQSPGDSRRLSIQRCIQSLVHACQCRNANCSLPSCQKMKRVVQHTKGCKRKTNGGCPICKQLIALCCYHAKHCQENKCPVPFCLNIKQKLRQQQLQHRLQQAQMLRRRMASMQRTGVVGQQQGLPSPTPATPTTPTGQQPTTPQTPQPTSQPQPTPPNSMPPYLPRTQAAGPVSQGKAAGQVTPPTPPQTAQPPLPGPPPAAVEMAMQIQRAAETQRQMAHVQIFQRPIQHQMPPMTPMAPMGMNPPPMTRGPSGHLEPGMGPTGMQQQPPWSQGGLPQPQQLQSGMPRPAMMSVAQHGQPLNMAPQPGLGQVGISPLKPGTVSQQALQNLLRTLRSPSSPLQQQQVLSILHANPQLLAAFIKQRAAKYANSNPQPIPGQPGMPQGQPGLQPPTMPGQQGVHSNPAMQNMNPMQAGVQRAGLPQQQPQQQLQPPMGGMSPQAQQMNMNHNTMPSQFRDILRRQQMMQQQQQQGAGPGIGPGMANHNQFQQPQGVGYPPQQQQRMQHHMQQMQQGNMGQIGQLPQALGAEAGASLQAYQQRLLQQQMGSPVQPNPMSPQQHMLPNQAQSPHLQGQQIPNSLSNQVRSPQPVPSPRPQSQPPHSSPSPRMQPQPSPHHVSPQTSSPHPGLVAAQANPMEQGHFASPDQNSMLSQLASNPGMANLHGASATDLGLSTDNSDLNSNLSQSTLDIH
The response must be a number in nM with no trailing unit.

These recorded examples may help you get a feel for the data.
CN(C)CCNC(=O)c1cccc2c(C(=O)C(NCCc3ccc(Cl)cc3Cl)c3ccccc3)c[nH]c12 (single isomer, unassigned) [149 Isomer 1]    223
CN(C)CCNC(=O)c1ccc2c(C(=O)C(NCCc3ccc(Cl)cc3Cl)c3ccccc3)c[nH]c2c1 (single isomer, unassigned) [153 Isomer 1]    7.84

Could you now look at the following compound, please?
// returns IC50 for NS(=O)(=O)c1ccc(CCNC(C(=O)c2c[nH]c3cccc(Cl)c23)c2ccccc2)cc1 (single isomer, unassigned) [12 Isomer 1] with full length p300 (Homo sapiens (Human)); value = 8500

* * *

In this section, each of the compounds is paired with its reported pIC50.
# assay target: p300 HAT domain (residues 1287-1666) (Homo sapiens (Human), UniProt Q09472)
# test name: p300 HAT SPA assay (scintillation proximity assay, acetylation of biotinylated H3(1-21) peptide)
# Format: biochemical
# condition parameters: p300 HAT domain; average of at least 2 replicate titrations; read-out: P300 HAT SPA IC50
The meaning of pIC50 here: minus log10 of the concentration in molar units.

O=C(c1c[nH]c2ccccc12)C(NCCc1cccnc1)c1ccccc1 (single isomer, unassigned) [10 Isomer 2]    4.72

Could you now look at the following compound, please?
The compound CCN1CC(NC(=O)c2ccc3c(C(=O)C(NCCc4ccc(C#N)cc4)c4ccccc4)c[nH]c3c2)C1 (single isomer, unassigned) [163 Isomer 2] showed pIC50 equal to 7.38

* * *

# assay target: p300 HAT domain (residues 1287-1666) (Homo sapiens (Human))
# test name: p300 HAT SPA assay (scintillation proximity assay, acetylation of biotinylated H3(1-21) peptide)
# Assay type: biochemical
# condition parameters: p300 HAT domain; average of at least 2 replicate titrations; read-out: P300 HAT SPA IC50
In this section, each of the compounds is paired with its reported IC50.
The response must be a number in nM with no trailing unit.

These recorded examples may help you get a feel for the data.
COc1ccc2c(C(=O)C(NCCc3ccc(Cl)cc3)c3ccccc3)c[nH]c2c1 (single isomer, unassigned) [60 Isomer 1]    27800
Cc1cnc(-c2ccc3c(C(=O)C(NCCc4ccc(Cl)cc4)c4ccccc4)c[nH]c3c2)[nH]1 (single isomer, unassigned) [109 Isomer 2]    195

Could you now look at the following compound, please?
// returns IC50 for Cn1cc(-c2ccc3c(C(=O)C(NCCc4ccc(F)cc4)c4ccccc4)c[nH]c3c2)cn1 (single isomer, unassigned) [78 Isomer 2] with p300 HAT domain (residues 1287-1666) (Homo sapiens (Human)); value = 716

* * *

# assay target: p300 HAT domain (residues 1287-1666) (Homo sapiens (Human))
# test name: p300 HAT SPA assay (scintillation proximity assay, acetylation of biotinylated H3(1-21) peptide)
# Assay type: biochemical
# condition parameters: read-out: P300 HAT SPA IC50; p300 HAT domain; average of at least 2 replicate titrations
test readout: IC50

O=C(c1cn(CC(F)(F)F)c2ccccc12)C(NCCc1ccc(Cl)cc1)c1ccccc1 (single isomer, unassigned) [130 Isomer 2]    > 60 µM

The compound COCCn1cc(C(=O)C(NCCc2ccc(Cl)cc2)c2ccccc2)c2ccccc21 (single isomer, unassigned) [127 Isomer 2] showed IC50 equal to > 60 µM

* * *

# assay target: p300 HAT domain (residues 1287-1666) (Homo sapiens (Human))
# test name: p300 HAT SPA assay (scintillation proximity assay, acetylation of biotinylated H3(1-21) peptide)
# Assay type: biochemical
# condition parameters: p300 HAT domain; average of at least 2 replicate titrations; read-out: P300 HAT SPA IC50
test readout: pIC50
The meaning of pIC50 here: minus log10 of the concentration in molar units.

These recorded examples may help you get a feel for the data.
CC(CNC(C(=O)c1c[nH]c2ccccc12)c1ccccc1)c1ccc(Cl)cc1 (single isomer, unassigned) [26 Isomer 4]    6.69
CN1CCC(Oc2ccc3c(C(=O)C(NCCc4ccc(C#N)cc4)c4ccccc4)c[nH]c3c2)CC1 (single isomer, unassigned) [126 Isomer 2]    7.44
CC(CNC(C(=O)c1cnn2cc(C(=O)NC[C@@H](C)O)ccc12)c1ccccc1)c1ccc(C#N)cc1 (single isomer, unassigned) [70 Isomer 2]    7.19
COc1ccc2c(C(=O)C(NCCc3ccc(Cl)cc3)c3ccccc3)c[nH]c2c1 (single isomer, unassigned) [60 Isomer 2]    5.96
Cn1cc(-c2ccc3c(C(=O)C(NCCc4ccc(S(N)(=O)=O)cc4)c4ccccc4)cnn3c2)cn1 (single isomer, unassigned) [101 Isomer 1]    6.78
O=C(c1c[nH]c2ccccc12)C(NCCc1ccc(C(F)(F)F)cc1)c1ccccc1 (single isomer, unassigned) [21 Isomer 2]    4.48
CCNC(=O)c1ccc2c(C(=O)C(NCC(C)c3ccc(C#N)cc3)c3ccccc3)cnn2c1 (single isomer, unassigned) [69 Isomer 1]    6.73
CC(Cc1ccc(Cl)cc1)NC(C(=O)c1c[nH]c2ccccc12)c1ccccc1 (single isomer, unassigned) [27 Isomer 1]    6.20
O=C(c1cnc2ccccn12)C(NCCc1ccc(Cl)cc1)c1ccccc1 (single isomer, unassigned) [46 Isomer 1]    5.05
O=C(c1c[nH]c2cc(-c3ccncc3)ccc12)C(NCCc1ccc(Cl)cc1)c1ccccc1 (single isomer, unassigned) [89 Isomer 2]    6.02

The compound C[C@H](O)CNC(=O)c1ccc2c(C(=O)C(NCCc3ccc(C#N)cc3)c3ccccc3)c[nH]c2c1 (single isomer, unassigned) [168 Isomer 1] showed pIC50 equal to 5.39

The compound N#Cc1ccc(CCNC(C(=O)c2c[nH]c3cc(C(=O)NC4COC4)ccc23)c2ccccc2)cc1 (single isomer, unassigned) [174 Isomer 1] showed pIC50 equal to 6.02

The compound CN(C)C(=O)c1ccc2c(C(=O)C(NCCc3ccc(C#N)cc3)c3ccccc3)c[nH]c2c1 (single isomer, unassigned) [172 Isomer 2] showed pIC50 equal to 6.18

The compound COc1cccc2c(C(=O)[C@@H](NCCc3ccc(S(N)(=O)=O)cc3)c3ccccc3)c[nH]c12 (single isomer, unassigned) [144 Isomer 2] showed pIC50 equal to 5.85

The compound CNC(=O)c1ccc(CCN[C@H](C(=O)c2c[nH]c3cc(-c4cnn(C)c4)ccc23)c2ccccc2)cc1 (single isomer, unassigned) [131 Isomer 2] showed pIC50 equal to 5.89

The compound CN(C)C(=O)CCc1ccc2c(C(=O)C(NCCc3ccc(F)cc3)c3ccccc3)c[nH]c2c1 (single isomer, unassigned) [49 Isomer 2] showed pIC50 equal to 5.66

The compound Cn1cc(-c2ccc3c(C(=O)C(NCCc4ccc(S(N)(=O)=O)cc4)c4ccccc4)c[nH]c3c2)cn1 (single isomer, unassigned) [66 Isomer 1] showed pIC50 equal to 6.02
